- Target: T1, recombinant human Cyclophilin A (CypA) (human, UniProt P62937 1-165)
- T1 construct: also called human peptidyl prolyl isomerase CypA; source: E. coli BL21(DE3), pET11c, purified (DEAE-Sepharose flow-through, MonoS cation exchange)
- T1 sequence (P62937 whole entry): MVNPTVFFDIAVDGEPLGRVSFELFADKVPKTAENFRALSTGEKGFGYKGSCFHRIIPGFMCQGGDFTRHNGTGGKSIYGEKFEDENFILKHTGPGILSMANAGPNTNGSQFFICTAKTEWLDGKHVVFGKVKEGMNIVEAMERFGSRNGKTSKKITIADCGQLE
- Assay Name: SPR
- Particulars: both partners purified
Readout Name: kd1 (two-state model, dissociation) (s⁻¹)

- AVRHFPRIWLH (source: synthetic peptide) [synthetic HIV-1 Vpr peptide sVpr^30-40]: 0.527
- RHFPRIW (source: synthetic peptide) [synthetic HIV-1 Vpr peptide sVpr^32-38]: 0.67
- ELKSEAVRHFPRIWLH (source: synthetic peptide) [synthetic HIV-1 Vpr peptide sVpr^25-40]: 0.942
- HFPRI (source: synthetic peptide) [synthetic HIV-1 Vpr peptide sVpr^33-37]: 0.66
- ELLEELKSEAVRHFPRIWLH (source: synthetic peptide) [synthetic HIV-1 Vpr peptide sVpr^21-40]: 0.164
